Target: JAK2 (Homo sapiens)
Construct: made in house; host or cells: SF9 insect cells (baculovirus)
Sequence (O60674 812-1132): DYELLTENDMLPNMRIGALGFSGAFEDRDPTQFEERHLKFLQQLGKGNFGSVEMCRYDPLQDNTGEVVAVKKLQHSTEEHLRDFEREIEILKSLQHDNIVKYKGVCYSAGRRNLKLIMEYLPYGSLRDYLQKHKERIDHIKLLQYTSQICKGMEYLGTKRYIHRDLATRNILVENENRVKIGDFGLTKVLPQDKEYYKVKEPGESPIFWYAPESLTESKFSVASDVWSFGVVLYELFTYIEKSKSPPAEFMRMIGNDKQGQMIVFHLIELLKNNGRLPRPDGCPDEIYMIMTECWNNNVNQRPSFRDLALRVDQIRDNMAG
Assay: JAK2 inhibition (Table 4)
Type: biochemical
Settings: read-out: JAK2 Ki
measured-parameter: Ki (nM)
Field: numeric (nM). Do not append units.

INPUT: Could you tell me which Ki is on file for CCN1CCC(n2c([C@@H](C)O)nc3cnc4[nH]ccc4c32)C(F)(F)C1 (single isomer, unassigned) [Example 879] ?
OUTPUT: 22.2

INPUT: Could you tell me which Ki is on file for Cc1nc2cnc3[nH]ccc3c2n1[C@@H]1CC[C@@H](NC2COC2)C1 ?
OUTPUT: 99.7

INPUT: Could you tell me which Ki is on file for C[C@@H](O)c1nc2cnc3[nH]ccc3c2n1[C@H]1CC[C@H](NCCC#N)CC1 ?
OUTPUT: 57.5

INPUT: Could you tell me which Ki is on file for CCn1ncc(CN2CCC(n3c([C@@H](C)O)nc4cnc5[nH]ccc5c43)CC2)c1C ?
OUTPUT: 494

INPUT: Could you tell me which Ki is on file for O=S(=O)(c1ccccc1)N1CCC[C@@H](n2cnc3cnc4[nH]ccc4c32)C1 ?
OUTPUT: 10.5

INPUT: Could you tell me which Ki is on file for O=C1CCCN1Cc1nc2cnc3[nH]ccc3c2n1C1CCN(Cc2ccccc2)CC1 ?
OUTPUT: 68.6

INPUT: Could you tell me which Ki is on file for CC(C)(C#N)C(=O)N1CCC[C@@H](n2cnc3cnc4[nH]ccc4c32)C1 ?
OUTPUT: 5.28

INPUT: Could you tell me which Ki is on file for c1ncc(CN2CCC[C@@H](n3cnc4cnc5[nH]ccc5c43)C2)cn1 ?
OUTPUT: 41

Value source: patent US8461328B2
